This collection of values is drawn from paper PMC11986143.

# measuredOn: integrin αvβ3 on bEnd.3 vesicles (mouse (endogenous in bEnd.3), UniProt P43406 31-1044; O54890 26-787)
# Sequence (P43406 31-1044, chain 1 of 2): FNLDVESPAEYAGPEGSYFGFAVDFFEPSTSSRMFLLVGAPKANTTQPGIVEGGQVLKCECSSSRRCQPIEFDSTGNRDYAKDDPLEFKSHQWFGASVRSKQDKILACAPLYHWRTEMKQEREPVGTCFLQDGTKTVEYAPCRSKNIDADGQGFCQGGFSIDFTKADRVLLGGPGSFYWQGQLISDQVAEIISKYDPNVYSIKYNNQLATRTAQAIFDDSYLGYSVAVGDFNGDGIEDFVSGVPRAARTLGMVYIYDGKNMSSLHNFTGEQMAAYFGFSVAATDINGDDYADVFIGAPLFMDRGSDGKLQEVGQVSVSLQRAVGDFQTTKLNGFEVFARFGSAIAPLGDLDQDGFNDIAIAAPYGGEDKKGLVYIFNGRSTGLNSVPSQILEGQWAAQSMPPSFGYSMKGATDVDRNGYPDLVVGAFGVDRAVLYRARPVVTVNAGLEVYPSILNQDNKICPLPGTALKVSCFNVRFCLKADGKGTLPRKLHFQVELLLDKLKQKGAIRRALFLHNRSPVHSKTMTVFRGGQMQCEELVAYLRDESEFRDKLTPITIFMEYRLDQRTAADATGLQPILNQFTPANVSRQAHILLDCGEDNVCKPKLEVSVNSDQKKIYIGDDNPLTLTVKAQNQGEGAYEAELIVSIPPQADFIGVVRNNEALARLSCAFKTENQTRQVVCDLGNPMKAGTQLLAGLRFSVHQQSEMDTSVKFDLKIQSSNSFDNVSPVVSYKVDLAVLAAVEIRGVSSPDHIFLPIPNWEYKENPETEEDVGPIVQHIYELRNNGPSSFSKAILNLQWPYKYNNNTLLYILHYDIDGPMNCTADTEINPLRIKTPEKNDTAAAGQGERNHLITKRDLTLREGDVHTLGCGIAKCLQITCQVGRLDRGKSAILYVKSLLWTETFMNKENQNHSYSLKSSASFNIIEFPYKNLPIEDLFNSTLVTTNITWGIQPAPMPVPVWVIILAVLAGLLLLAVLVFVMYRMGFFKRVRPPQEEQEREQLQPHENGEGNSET
# Sequence (O54890 26-787, chain 2 of 2): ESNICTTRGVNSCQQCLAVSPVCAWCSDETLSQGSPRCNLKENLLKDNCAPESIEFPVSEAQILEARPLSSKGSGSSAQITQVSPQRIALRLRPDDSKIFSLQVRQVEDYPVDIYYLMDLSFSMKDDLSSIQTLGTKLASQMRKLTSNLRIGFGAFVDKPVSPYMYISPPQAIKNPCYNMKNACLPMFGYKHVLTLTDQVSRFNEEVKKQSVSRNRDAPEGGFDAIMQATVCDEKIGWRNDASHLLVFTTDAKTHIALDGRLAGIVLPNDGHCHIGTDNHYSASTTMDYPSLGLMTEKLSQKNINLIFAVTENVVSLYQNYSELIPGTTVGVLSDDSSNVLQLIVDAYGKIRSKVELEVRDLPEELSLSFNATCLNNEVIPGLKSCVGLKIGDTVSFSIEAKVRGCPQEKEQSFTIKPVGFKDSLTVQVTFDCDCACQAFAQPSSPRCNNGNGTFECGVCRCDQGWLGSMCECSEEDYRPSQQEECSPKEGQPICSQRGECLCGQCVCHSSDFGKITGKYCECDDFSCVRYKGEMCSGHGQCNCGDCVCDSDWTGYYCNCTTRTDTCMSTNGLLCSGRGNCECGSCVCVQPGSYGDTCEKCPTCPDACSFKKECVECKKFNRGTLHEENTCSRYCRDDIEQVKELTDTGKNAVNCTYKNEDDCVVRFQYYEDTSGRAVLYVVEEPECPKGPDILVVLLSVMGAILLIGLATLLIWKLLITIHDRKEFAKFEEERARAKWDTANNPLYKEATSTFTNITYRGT
# runDescription: SPR
[ ]: non-standard residue; d: D form.
outcomeMeasure: Kd (µM)
Write the number in µM without appending the unit.

Give its Kd value. Item: cyclo(RGD[dY]K) [c(RGDyK) peptide] 17.1
